Experiment: Plasma kinetics of TMC278 in beagle dogs after single intramuscular administration
Assay type: in vivo
Details: male, beagle, dog, plasma, intramuscular, 2.5 mg/kg, dog No. 16854; day 64; single IM 2.5 mg/kg, aqueous 30% DMA/50% PEG400 solution; read-out: plasma concentration during the wash-out period
quantityMeasured: concentration at 64 day

Give the value of concentration at 64 day reported for the following: "Cc1cc(C=CC#N)cc(C)c1Nc1ccnc(Nc2ccc(C#N)cc2)n1"
2.18 ng/mL

* * *

Assay: Plasma kinetics of TMC278 in beagle dogs after single intramuscular administration
Type: in vivo
Settings: male, beagle, dog, plasma, im, 2.5 mg/kg, dog No. 16854; single IM 2.5 mg/kg, aqueous 30% DMA/50% PEG400 solution
quantityMeasured: Tmax (h)
A number alone suffices; assume h.

Give a short answer stating reported Tmax for "Cc1cc(C=CC#N)cc(C)c1Nc1ccnc(Nc2ccc(C#N)cc2)n1" .
8

* * *

Assay: Plasma kinetics of TMC278 in beagle dogs after single intramuscular administration
Type: in vivo
Settings: male, beagle, dog, plasma, intramuscular, 2.5 mg/kg, dog No. 16924; 4 h after dose; single IM 2.5 mg/kg, aqueous 30% DMA/50% PEG400 solution
quantityMeasured: concentration at 4 h (ng/mL)
Only the number, expressed in ng/mL, is required.

Output concentration at 4 h of Cc1cc(C=CC#N)cc(C)c1Nc1ccnc(Nc2ccc(C#N)cc2)n1 [TMC278]
17.1

* * *

Assay: Plasma kinetics of TMC278 in beagle dogs after single intramuscular administration
Type: in vivo
Settings: male, beagle, dog, plasma, intramuscular, 2.5 mg/kg, mean (n=2); day 148; single IM 2.5 mg/kg, aqueous 30% DMA/50% PEG400 solution; read-out: plasma concentration during the wash-out period
quantityMeasured: concentration at 148 day (ng/mL)
// units = ng/mL; emit number, no label

// Input: "Cc1cc(C=CC#N)cc(C)c1Nc1ccnc(Nc2ccc(C#N)cc2)n1" . Output its concentration at 148 day only.
1.33

* * *

Test: Plasma kinetics of TMC278 in beagle dogs after single intramuscular administration
Type: in vivo
Settings: male, beagle, dog, plasma, intramuscular, 2.5 mg/kg, mean (n=2); 24 h after dose; single IM 2.5 mg/kg, aqueous 30% DMA/50% PEG400 solution
quantityMeasured: concentration at 24 h (ng/mL)
I only need the number, in ng/mL, no unit after it.

Quote concentration at 24 h reported for "Cc1cc(C=CC#N)cc(C)c1Nc1ccnc(Nc2ccc(C#N)cc2)n1" please.
9.55

* * *

Experiment: Plasma kinetics of TMC278 in beagle dogs after single intramuscular administration
Type: in vivo
Settings: male, beagle, dog, plasma, intramuscular, 2.5 mg/kg, dog No. 16854; 0.5 h after dose; single IM 2.5 mg/kg, aqueous 30% DMA/50% PEG400 solution
quantityMeasured: concentration at 0.5 h (ng/mL)
Provide the reading as a plain figure in ng/mL.

Return reported concentration at 0.5 h. Input compound: Cc1cc(C=CC#N)cc(C)c1Nc1ccnc(Nc2ccc(C#N)cc2)n1 [TMC278]
13.5

* * *

Assay: Plasma kinetics of TMC278 in beagle dogs after single intramuscular administration
Assay type: in vivo
Details: male, beagle, dog, plasma, intramuscular, 2.5 mg/kg, mean (n=2); 192 h after dose; single IM 2.5 mg/kg, aqueous 30% DMA/50% PEG400 solution
quantityMeasured: concentration at 192 h
# include the unit after the value

Give concentration at 192 h for the following molecule: Cc1cc(C=CC#N)cc(C)c1Nc1ccnc(Nc2ccc(C#N)cc2)n1 [TMC278]
3.19 ng/mL
